# % Remaining of Initial, 30 min per record follows
Biological target: hrMAO-A (Homo sapiens)
Construct: purchased XenoTech Lot #8213001
Sequence (P21397 whole entry): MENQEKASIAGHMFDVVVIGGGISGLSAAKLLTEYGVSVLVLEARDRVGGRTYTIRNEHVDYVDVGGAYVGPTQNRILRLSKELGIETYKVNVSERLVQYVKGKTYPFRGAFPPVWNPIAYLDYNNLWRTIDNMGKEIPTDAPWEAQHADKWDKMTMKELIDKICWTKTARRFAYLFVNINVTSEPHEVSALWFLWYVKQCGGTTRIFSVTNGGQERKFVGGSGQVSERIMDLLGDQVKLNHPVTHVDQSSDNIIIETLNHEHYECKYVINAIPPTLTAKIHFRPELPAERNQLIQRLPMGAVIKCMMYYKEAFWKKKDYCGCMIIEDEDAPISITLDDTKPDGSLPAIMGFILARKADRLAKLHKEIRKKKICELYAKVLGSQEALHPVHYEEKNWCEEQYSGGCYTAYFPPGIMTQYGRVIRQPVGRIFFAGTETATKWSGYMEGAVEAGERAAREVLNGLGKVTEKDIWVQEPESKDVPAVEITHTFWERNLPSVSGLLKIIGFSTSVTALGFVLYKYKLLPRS
Test: Metabolic stability in the presence of hrMAO-A
Type: in vitro ADME
Settings: hrMAO-A; 30 min; Table 3, four test articles
Number in %, nothing else.

These solved cases illustrate the format of a correct answer.
-- ask Give the measured % Remaining of Initial, 30 min of CN(C)CCc1c[nH]c2ccccc12 [DMT, reference compound] .
-- reply 49.4

-- ask Param item: [2H]C([2H])(Cc1c[nH]c2ccccc12)N(C)C [DMT-d2]
-- reply 97.5

-- ask Param item: [2H]C([2H])([2H])N(C([2H])([2H])[2H])C([2H])([2H])C([2H])([2H])c1c[nH]c2ccccc12 [DMT-d10]
-- reply 101

Okay, next one:
-- ask Give the measured % Remaining of Initial, 30 min of [2H]C([2H])(c1c[nH]c2ccccc12)C([2H])([2H])N(C)C [DMT-d4] .
-- reply 98.2

Hello, the source for this data is patent US12240813B2, in case you need it.
